// data source = PubChem BioAssay (NCI)

Test system: CCRF-CEM leukemia
Test: NCI-60 one-dose screen, 48 h
Conditions: 10 µM unless noted
This is part of a sample that, as a whole, favours compounds with a hit. Of some 83,000 tested, about 20% had one in any assay. Calls of active or inactive are those of the source. How the source made its calls: active means growth percent below 10; inactive means the rest.
Outcome codes: 1 for active, -1 for inactive

• O=C(Nc1cccc(C(F)(F)F)c1)Nc1cccc(C(F)(F)F)c1 = 1
• NC(N)=NN=C(c1ccccc1)c1ccccc1 = -1
• COc1ccc(/C=N/C2=C(C#N)C(c3ccc(OC)cc3)c3ccc4ccccc4c3O2)cc1 (stereo not given) = -1
• Cc1nn(-c2ccccc2)c(Oc2ccc(Cl)cc2)c1/C=N\N=c1/sc2ccccc2n1C = -1
• COc1cc(N2C(=O)c3nccnc3C2=O)cc(OC)c1OC = -1
• C[C@]12CC[C@@H]3c4cc(OC(F)F)c(O)cc4CC[C@H]3[C@@H]1CC[C@@H]2OS(N)(=O)=O = -1
• O=C(Nc1cccc(Cl)c1)c1cc(N=Nc2ccc([N+](=O)[O-])cc2Cl)ccc1O = -1
• CC(=O)C(C)Cc1cc2c(cc1C)C(C)(C)CCC2(C)C (stereo not given) = -1
• COc1cc(Cn2ncc3ccc(NC(=O)c4cc5ccccc5oc4=N)cc32)cc(OC)c1OC = -1
• O=C(/C=C/c1cccc(O)c1)c1cccc(-n2cc(-c3ccc4ccccc4c3)[nH]c2=O)c1 = 1
• COc1cc(C2CC(c3cc(OC)c(OCCCOc4ccc(-n5c(/C=C/c6ccccc6)nc6ccccc6c5=O)cc4)c(OC)c3)=NO2)cc(OC)c1OC (stereo not given) = -1
• COc1ccc(Nc2nnc(SCc3ccccc3F)s2)cc1 = -1
• CC(C)(C)n1cc(-c2ccnc(NCCCNS(=O)(=O)c3ccccc3)c2)c(-c2ccccc2)n1 = -1
• COc1ccc(-c2cc(-c3cc(OC)c(OC)c(OC)c3)c(C#N)c(N3CCOCC3)n2)cc1O = -1
• COc1cc(C(=O)/C=C/c2c(-c3ccc(F)cc3)nc3sc(C)cn23)cc(OC)c1OC = -1
• CCN1C(=O)N(CC)C2Nn3c(s/c(=C\c4ccc(Cl)cc4Cl)c3=O)=NC21 (stereo not given) = -1
• OC(c1cccc(-n2ccc(C(F)(F)F)n2)c1)c1cnccc1NC1CCCCCC1 (stereo not given) = 1
• COc1cccc(-c2nn(-c3ccccc3)cc2-c2ccnc(NCCNC(=O)Nc3ccccc3)c2)c1 = -1
• Cc1ccc(-c2cc(-c3cccnc3)[nH]c(=O)c2C#N)cc1 = -1
• CC1=C([Se]CC(OC(=O)CC[Se]c2ccccc2)C(=O)NCCCCCC(=O)OCc2ccccc2)C(=O)c2ccccc2C1=O (stereo not given) = 1
